Biological target: T1, NFIL3 A113T (human, UniProt Q16649 65-161, A113T)
T1 sequence: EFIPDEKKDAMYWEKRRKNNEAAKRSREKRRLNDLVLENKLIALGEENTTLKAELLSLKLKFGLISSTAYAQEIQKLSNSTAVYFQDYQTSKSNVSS
Test: ITC; ITC: 20 mM Tris pH 7.5, 150 mM NaCl, 25 °C; EMSA: same buffer, 4 °C, 6% native gel in 0.5x TBE
Conditions: protein: recombinant; tags: His6-SUMO removed by TEV; chain copies: 2; blunt
measured.parameter: pKd
Quick note: pKd values are minus log10 of concentrations in mol/L.

(Q) Quick one: pKd for TTACGTAA (dsDNA) DNA 1: CATTACGTAATG DNA 2: CATTACGTAATG ?
(A) 6.66
